These entries and their values trace back to the NIST ThermoML archive (doi:10.1016/j.fluid.2009.08.017).

- experimental.details: activity coefficient (dimensionless); of the first substance listed, at infinite dilution; xn = mol fraction of the nth substance listed
- measurement.context: 298.15 K; 101 kPa; Liquid; Chromatography; x1 = 0
Label rule, in plain words: activity coefficient of 2 and up is condition met, under 2 is condition not met.

# compound, class
records = [
    ("C=CCCCCC [1-heptene] + CCCCCCOCn1cc[n+](C)c1.O=S(=O)([N-]S(=O)(=O)C(F)(F)F)C(F)(F)F", "condition met"),
    ("C1CCCCC1 [cyclohexane] + CCCCCCOCn1cc[n+](C)c1.O=S(=O)([N-]S(=O)(=O)C(F)(F)F)C(F)(F)F", "condition met"),
    ("COC(C)(C)C [2-methoxy-2-methylpropane] + CCCCCCOCn1cc[n+](C)c1.O=S(=O)([N-]S(=O)(=O)C(F)(F)F)C(F)(F)F", "condition not met"),
    ("CCO [ethanol] + CCCCCCOCn1cc[n+](C)c1.O=S(=O)([N-]S(=O)(=O)C(F)(F)F)C(F)(F)F", "condition not met"),
    ("CCCCCCCC [octane] + CCCCCCOCn1cc[n+](C)c1.O=S(=O)([N-]S(=O)(=O)C(F)(F)F)C(F)(F)F", "condition met"),
    ("C#CCCCC [1-hexyne] + CCCCCCOCn1cc[n+](C)c1.O=S(=O)([N-]S(=O)(=O)C(F)(F)F)C(F)(F)F", "condition not met"),
    ("CC(C)=O [acetone] + CCCCCCOCn1cc[n+](C)c1.O=S(=O)([N-]S(=O)(=O)C(F)(F)F)C(F)(F)F", "condition not met"),
]
